Study System: Eukaryotic translation initiation factor 4H (Homo sapiens)
Assay Protocol: human eIF4H binding inhibitors, primary screen, translation initiation inhibitor project, biochemical, uHTS, fluorescence polarization (AID 2012);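 note: calls also rest on retests at 20 µM and on dose response follow-up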
Condition Parameters: eIF4H fluorescence polarization binding assay; at 35 µM; active compounds read high
Hit rate of the full screen: of about 290,000 compounds, about 2,700 (0.93%) were called active. The entries come from a sample that favours actives as a whole.

# Compound, inhibition [%]
measured = [
    ("CC(Cc1cccs1)N(Cc1ccc(Cl)cc1)C(=O)c1ccncc1 (stereo unspecified)", -2),
    ("Cc1cc(F)ccc1S(=O)(=O)N1CCCOC1CNC(=O)C(=O)NCCC1=CCCCC1 (stereo unspecified)", -0.8),
    ("COc1ccc(Cc2nnc(NC(=O)c3ccc(OC)cc3OC)s2)cc1", 4.9),
    ("COc1ccc(CC(=O)N/N=C(\\C)c2ccccn2)cc1", 7.3),
    ("C=CCN1C(=O)C2(OCCCO2)c2cccc(Cl)c21", 0.1),
    ("Cc1cc(NC(=O)[C@H](C)NC(=O)c2ccco2)ccc1Br", -0.5),
    ("Cc1cccc(OCC(=O)NCCCNC(=O)c2ccccn2)c1", -28.2),
    ("COc1ccc(CCNC(=O)CN(C)S(=O)(=O)c2ccc3nc(C)sc3c2)cc1OC", -3),
    ("COc1ccc(/C=N/NC(=O)c2cccc(C(F)(F)F)c2)cc1", -2.2),
    ("Cn1cccc1/C=N/NC(=O)CNc1cccc2ccccc12", -6.2),
    ("CN1CCN(C(=O)c2ccc(NS(=O)(=O)c3ccccc3)cc2)CC1", -6.4),
    ("CCc1nnc(NC(=O)Cc2cccs2)s1", 19.2),
    ("Cc1ccc(NC(=O)c2cccnc2C(=O)Nc2ccc(C)cc2)cc1", 4),
    ("O=C(CCN1C(=O)[C@@H]2Cc3ccccc3CN2C1=O)NCc1ccccc1", -0.5),
    ("Cc1c(-c2cccc(Cl)c2)nc2ccccc2c1C(=O)OCC(=O)N(C)C1CCS(=O)(=O)C1 (stereo unspecified)", -7),
    ("O=C(Nc1nonc1-c1ccc(Cl)cc1)c1ccco1", -12.8),
    ("Cc1cc(NC(=O)CCC(=O)N(CC(=O)NC2CCCC2)c2ccc(F)cc2)no1", -1.3),
    ("Fc1cc(F)c2nc(Nc3nc4c(F)cccc4s3)sc2c1", 11.5),
    ("Cc1nc(N2CCOCC2)sc1C(=O)NN", 0.1),
    ("CCOc1ccccc1/C=c1\\sc2nc(-c3ccco3)nn2c1=O", 81.8),
    ("COc1ccc(C(=O)/C=C/c2ccc(-c3ccccc3)cc2)cc1CSCC(=O)O", 82.3),
    ("COC(=O)CCCC1=CC2=CC(=O)C(C)(OC(=O)c3cccs3)C(=O)C2=CN1CC1CC1 (stereo unspecified)", 45.8),
    ("Cc1ccc(CN2CCN(c3ncccn3)CC2)c(C)c1", 17.4),
    ("Cc1ccc(NC(=O)C(CC(=O)O)C2CCCO2)c(C)c1 (stereo unspecified)", -7),
    ("Cc1ccc2sc(N(CCN(C)C)C(=O)/C=C/c3cccs3)nc2c1C", -10.2),
    ("Cc1nnc(N(Cc2ccco2)C(=O)c2ccno2)s1", 55.4),
    ("Cc1ccc(-c2csc(N(Cc3ccco3)C(=O)c3cccs3)n2)cc1", -15.6),
    ("CN(C(=O)COC(=O)c1cc(-c2ccco2)nc2ccccc12)C1CCS(=O)(=O)C1 (stereo unspecified)", 87.9),
    ("Fc1cc(F)c2nc(N3CCOCC3)sc2c1", -7.8),
    ("NC(=O)c1c(Nc2nc3c(F)cccc3s2)sc2c1CCCC2", 72.6),
    ("Cc1ccnc(NC(=O)CCNS(=O)(=O)c2ccc(C)c(C)c2)c1", -10.9),
    ("COc1ccc(C(=O)NC(=S)N2CCCCC2c2cccnc2)cc1OC (stereo unspecified)", 2),
    ("COc1cc(/C=N/O)ccc1OCc1ccc([N+](=O)[O-])cc1", 0.1),
    ("O=C(NCCCc1ccccc1)C(=O)NCC1OCCN1S(=O)(=O)c1ccccc1 (stereo unspecified)", -4.1),
    ("Cc1ccc(CNC(=O)CCN2C(=O)[C@@H]3Cc4ccccc4CN3C2=O)cc1", -3.4),
    ("O=C(Nc1ccc(Cl)c(Cl)c1)c1ccccc1NC(=O)C1CC=CCC1C(=O)O (stereo unspecified)", -5.2),
    ("Cc1ccc(NC(=O)Nc2cccnc2)cc1", 2.1),
    ("O=C(CCc1ccccc1)NNC(=O)COc1ccc(Cl)cc1", 0.4),
    ("CCCc1cc(C(=O)Nc2ccc(Cl)cn2)cs1", 2.5),
    ("CN(C(=O)c1ccno1)c1nnc(-c2cccnc2)s1", -2.8),
    ("CCn1cc(C(=O)NCCC(=O)NCCO)c(=O)c2cc3c(cc21)OCO3", 13.7),
    ("CCCNC(=O)CCc1c(C)nc2c(c(C)nn2-c2ccccc2)c1C", -1.8),
    ("Cc1ccc(N2C(=O)C3C4C=CC(CC4)C3C2=O)cc1Br (stereo unspecified)", -2.9),
    ("Cn1cccc1/C=N/NC(=O)c1ccc(OC(F)(F)C(F)F)cc1", 9.7),
    ("CN1CCN(C(=O)C(=O)c2cn(CC(=O)N3CCCC3)c3ccccc23)CC1", -7.2),
    ("Cc1ccc(NC(=O)c2ccc(Oc3ncccn3)cc2)cc1", 0.1),
]

----------
compounds and their reported inhibition
Study System: Eukaryotic translation initiation factor 4H (Homo sapiens) (UniProt Q15056)
Assay Protocol: human eIF4H binding inhibitors, primary screen, translation initiation inhibitor project, biochemical, uHTS, fluorescence polarization (AID 2012);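 note: calls also rest on retests at 20 µM and on dose response follow-up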
Condition Parameters: eIF4H fluorescence polarization binding assay; at 35 µM; active compounds read high
Among all 290,000 compounds or so, about 2,700 (0.93%) were called active. This is one part of a sample in which actives are shown more often than they occur.

# Compound, inhibition / %
records = [
    ("COc1ccc(-c2csc(NC3OC(=O)c4ccccc43)n2)cc1 (centres undefined)", 2.1),
    ("CC(=O)c1ccc(N2CCN(C(=O)C3CCN(S(=O)(=O)c4ccc5c(c4)CC(C)N5C(=O)C4CC4)CC3)CC2)cc1 (centres undefined)", -9.3),
    ("CCOc1ccc(NC(=O)c2ccc(NC(=O)C3CCCO3)cc2)cc1 (centres undefined)", -9.4),
    ("O=C(CCCN1C(=O)/C(=C/c2ccco2)SC1=S)Nc1ccccc1", 77.4),
    ("O=C(CCCN1C(=O)/C(=C\\c2ccco2)SC1=S)Nc1cccc2ccccc12", 91.9),
    ("COc1ccc(CCN(C)C(=O)C23CC4CC(CC(Cl)(C4)C2)C3)cc1OC", -16.6),
    ("COc1ccccc1OCc1ccc(C(=O)NC(C)c2ccccc2)o1 (centres undefined)", -6.4),
    ("Cc1cc(NC(=O)CN2CCCC(C)C2)n(-c2nc3ccccc3s2)n1 (centres undefined)", -0.6),
    ("CCOC(=O)CSc1nc(N2CCOCC2)c2c(c1C#N)CC(C(C)C)OC2 (centres undefined)", -6.3),
    ("CC(C)(C)C(=O)OCc1nc(-c2ccc(O)c(O)c2)cs1", 1.2),
    ("Cc1cccc(N=C2NC(=O)/C(=C/c3cn(C)c4ccccc34)S2)c1", 2.5),
    ("Cc1ccc(NC(=O)/C(=C\\c2ccccc2)NC(=O)c2ccco2)cc1", 3.5),
    ("O=C(NCc1ccco1)/C(=C/c1ccco1)NC(=O)c1ccccc1", 3.9),
    ("COc1ccc(C23NCCN2C(=O)c2ccccc23)cc1 (centres undefined)", -1.8),
    ("C=CCNc1nnc(C)c2ccccc12", -4.9),
    ("CCOc1cc(/C=C2\\SC(N3CCCC(C)C3)=NC2=O)ccc1O (centres undefined)", 1.3),
    ("O=C(Nc1ncc2c(n1)-c1ccccc1OC2)c1ccc(Cl)cc1", -10.3),
    ("COc1ccc(C)cc1Nc1nc(C)nc2c1oc1ccccc12", -11.2),
    ("COc1ccccc1C(=O)N/C(=C/c1ccc2c(c1)OCO2)C(=O)Nc1cccc(C(=O)O)c1", -11.5),
    ("CCN(C(=O)C1CCCN(c2nc(-c3ccc(OC)cc3)no2)C1)c1ccc(OC)cc1 (centres undefined)", -11.8),
    ("Cc1cc(/C=C2/SC(=O)N(CC(=O)N3CCCC3)C2=O)c(C)n1C", 8.5),
    ("C#CCOc1ccccc1/C=C1/C(=O)ON=C1C", -20.1),
    ("CCc1ccc(Nc2ncc3c(n2)CC(c2ccco2)CC3=O)cc1 (centres undefined)", -4),
    ("Cn1c(-c2ccco2)nc2cc3ccccc3cc21", 4.9),
    ("COc1ccc(CCn2c(-c3ccco3)nc3nc4ccccc4nc32)cc1OC", 3.6),
    ("CCOc1ccc(NC(=O)c2cccc3c2C(=O)N(CC2CCCO2)C3)cc1 (centres undefined)", 3),
    ("CN1C(=O)/C(=C/c2ccco2)SC1=Nc1cccc(C(=O)O)c1", 99),
    ("COc1ccccc1CNC(=O)[C@@H]1CCCN1C(=O)[C@@H]1Cc2ccccc2CN1C(=O)OC(C)(C)C", -6.3),
    ("O=C(CSc1ccc(-c2ccc(Br)cc2)nn1)NCC1CCCO1 (centres undefined)", 3.3),
    ("O=C(N/C(=C\\c1ccc([N+](=O)[O-])cc1)C(=O)N1CCOCC1)c1cccc(Br)c1", 7.9),
    ("CC(=O)N1c2ccc(S(=O)(=O)N(C)CC(=O)N(C)Cc3ccccc3)cc2CC1C (centres undefined)", 2.8),
    ("Cc1c(OC(C)C(=O)N[C@@H](Cc2ccccc2)C(=O)O)ccc2c3c(c(=O)oc12)CCCC3 (some centres undefined)", 5.5),
    ("C=CCNc1nnc(SCC(=O)N2CCCCC2)c2ccccc12", 85.7),
    ("O=C(CN1CCc2cc3c(cc2C1)OCCCO3)Nc1ccccc1", 4.5),
    ("CCOc1ncccc1C(=O)NCCc1ccc(OC)cc1", -1.9),
    ("COc1ccccc1C(=O)N/C(=C/c1ccco1)C(=O)Nc1ccc(C(=O)O)cc1", 59.8),
    ("CN1CN(C)c2ccc([N+](=O)[O-])c3cccc1c23", 2.5),
    ("CCC(C)Cn1c(O)cc2nn(-c3nc4ccccc4s3)c(=O)c-2c1C (centres undefined)", 89.6),
    ("COc1ccccc1NC(=O)CSc1nnc(C)n1CC1CCCO1 (centres undefined)", -1.3),
    ("Cc1cc(CNC(=O)C2CCC(=O)N(CCc3ccc(Cl)cc3)C2)no1 (centres undefined)", -0.4),
    ("Cc1ccccc1CN1CCC(C(=O)Nc2ccc(Oc3cccnc3)cc2)CC1", -4.5),
    ("Cc1cc(/C=C2\\SC(=O)N(C)C2=O)c(C)n1-c1cccc(C(=O)O)c1", 89.5),
    ("CCn1c(/C=C/c2ccc([N+](=O)[O-])o2)nc2ccccc2c1=O", 83.6),
    ("O=C(Nc1ccccc1)/C(=C\\c1ccco1)NC(=O)c1ccco1", 26.2),
]
